Recorded values, source patent US20220388953A1.

Reported melting point values are given for each entry in this list.

Illustrative cases are given below, each with its answer.
Quick one: melting point of `O=C(O)c1ccccc1C(=O)c1ccc(Sc2ccc(Cl)c(Cl)c2)cc1` ?
164 to 166 °C

Try `O=C(O)c1ccc(Br)c(NCc2ccc(Sc3ccc(Cl)c(Cl)c3)c([N+](=O)[O-])c2)c1` next.
231 to 233 °C

Try `Nc1ccccc1Sc1ccc(C(=O)Nc2cccc(C(=O)O)c2)cc1[N+](=O)[O-]` next.
251 to 252 °C

Try `CCN(CC)C(=O)c1ccc(Sc2ccc(C(=O)c3ccccc3C(=O)O)cc2[N+](=O)[O-])c([N+](=O)[O-])c1` next.
129 to 130 °C

Try `Cc1cccc(Nc2ccc(C(=O)c3ccccc3C(=O)O)cc2[N+](=O)[O-])c1` next.
90 to 92 °C

Others:
Quick one: melting point of `O=C(O)c1ccccc1NCc1ccc(Sc2ccc(Cl)c(Cl)c2)c([N+](=O)[O-])c1` ?
171 to 173 °C
